test system: U2OS; assay: Multiplex assay against U2OS; format: toxicity, cell-based; conditions: human, 24 h, 1 µM, compound concentration 1 uM, replicate 1
Entries and their Population Apoptotic (%)
PARAMETER: Population Apoptotic (%)

INSERT INTO measurements (compound, parameter, recorded_result) VALUES
  ('O=C1NC(=O)C(c2cnc3ccccn23)=C1c1cn2c3c(cc(F)cc13)CN(C(=O)N1CCCCC1)CC2', 'Population Apoptotic (%)', '36%'),
  ('CN[C@@H]1C[C@H]2O[C@@](C)([C@@H]1OC)n1c3ccccc3c3c4c(c5c6ccccc6n2c5c31)C(=O)NC4', 'Population Apoptotic (%)', '93%'),
  ('COC(=N)c1nc2ccc3ncnc(Nc4ccc(OC)cc4F)c3c2s1', 'Population Apoptotic (%)', '28%'),
  ('NC(=O)c1cccc(-c2cc(Nc3ccc(OC(F)(F)F)cc3)ncn2)c1', 'Population Apoptotic (%)', '27%'),
  ('COc1ccc(-c2ccc3c(N4CCOCC4)nc(N4C[C@@H](C)O[C@@H](C)C4)nc3n2)cc1CO', 'Population Apoptotic (%)', '46%'),
  ('CCN1CCN(c2ccc(Nc3cc(N(C)C(=O)Nc4c(Cl)c(OC)cc(OC)c4Cl)ncn3)cc2)CC1', 'Population Apoptotic (%)', '49%'),
  ('Cc1ccc(C(=O)Nc2cccc(C(F)(F)F)c2)cc1Nc1nc(-c2cccnc2)nc2c1cnn2C', 'Population Apoptotic (%)', '42%'),
  ('O=C(Cc1ccc(-c2ccc(OCCN3CCOCC3)cc2)cn1)NCc1ccccc1', 'Population Apoptotic (%)', '34%'),
  ('C=CCn1c(=O)c2cnc(Nc3ccc(N4CCN(C)CC4)cc3)nc2n1-c1cccc(C(C)(C)O)n1', 'Population Apoptotic (%)', '62%'),
  ('Cc1cc(C)c(S(=O)(=O)N(Cc2ccc(-c3cccc(S(C)(=O)=O)c3)cc2)Cc2ccc(C(F)(F)F)o2)c(C)c1', 'Population Apoptotic (%)', '40%'),
  ('COc1ccc(S(=O)(=O)N(CCO)c2ccccc2CN(C)C/C=C/c2ccc(Cl)cc2)cc1.O=P(O)(O)O', 'Population Apoptotic (%)', '69%'),
  ('CN1CCC(=C2c3ccccc3CC(=O)c3sccc32)CC1.O=C(O)/C=C/C(=O)O [KETOTIFEN FUMARATE]', 'Population Apoptotic (%)', '48%'),
  ('Cc1ccc2nc(NCCN)c3ncc(C)n3c2c1.O=C(O)C(F)(F)F.O=C(O)C(F)(F)F', 'Population Apoptotic (%)', '33%'),
  ('Cl.O=C(c1ccc(Nc2nccc(-c3cc4ccccc4s3)n2)cc1)N1CCC(N2CCCC2)CC1', 'Population Apoptotic (%)', '38%'),
  ('CCCS(=O)(=O)Nc1ccc(F)c(C(=O)c2c[nH]c3ncc(Cl)cc23)c1F', 'Population Apoptotic (%)', '43%'),
  ('COc1cc(N2CCN(C)CC2)ccc1Nc1ncc2c(n1)N(C)c1ccccc1C(=O)N2C', 'Population Apoptotic (%)', '29%'),
  ('Cc1cn(-c2cc(NC(=O)c3ccc(C)c(Nc4nccc(-c5cccnc5)n4)c3)cc(C(F)(F)F)c2)cn1', 'Population Apoptotic (%)', '55%');

###

system: HEK-293T; assay: Multiplex assay against HEK293T; assay type: toxicity, cell-based; settings: human, 48 h, 1 µM, compound concentration 1 uM, replicate 1
Mark each entry fulfilled if its Population Mitochondria Different-Phenotype (%) sits below 50%, and not fulfilled for all others.

INSERT INTO assay_data (compound, target_under_test, answer_label) VALUES
  ('C=C1/C(=C\C=C2/CCC[C@]3(C)[C@@H]([C@H](C)/C=C/[C@H](C)C(C)C)CC[C@@H]23)C[C@@H](O)C[C@@H]1O', 'HEK-293T', 'fulfilled'),
  ('CCOC(=O)c1c(C)[nH]c2ccc3c(c12)CN1CCc2cc(OC)ccc2C1O3 (configuration not stated)', 'HEK-293T', 'not fulfilled'),
  ('Cc1cn(-c2cc(NC(=O)c3ccc(C)c(Nc4nccc(-c5cccnc5)n4)c3)cc(C(F)(F)F)c2)cn1', 'HEK-293T', 'not fulfilled'),
  ('CCOc1cc(C(=O)N2CCC(N3CCN(C)CC3)CC2)ccc1Nc1ncc2c(n1)N(C1CCCC1)c1ccccc1C(=O)N2C', 'HEK-293T', 'not fulfilled'),
  ('COc1cc(N2CCN(C)CC2)ccc1Nc1ncc2c(n1)N(C)c1ccccc1C(=O)N2C', 'HEK-293T', 'fulfilled'),
  ('O=C1NC(=O)C(c2cnc3ccccn23)=C1c1cn2c3c(cc(F)cc13)CN(C(=O)N1CCCCC1)CC2', 'HEK-293T', 'not fulfilled'),
  ('CN1CCC(=C2c3ccccc3CC(=O)c3sccc32)CC1.O=C(O)/C=C/C(=O)O [KETOTIFEN FUMARATE]', 'HEK-293T', 'not fulfilled'),
  ('O=C(Nc1ccc(Cl)cc1)Nc1cccc(-c2cccc(N3CCCC3)n2)c1', 'HEK-293T', 'fulfilled'),
  ('CN(C)C(=O)C(CCN1CCC(O)(c2ccc(Cl)cc2)CC1)(c1ccccc1)c1ccccc1.Cl [LOPERAMIDE HYDROCHLORIDE]', 'HEK-293T', 'not fulfilled'),
  ('CCn1c(=O)c(-c2ccc(-c3cncs3)cc2Cl)cc2cnc(Nc3ccc(N4CCN(C)CC4)cc3)nc21', 'HEK-293T', 'fulfilled'),
  ('CN1C2CCC1CC(OC(c1ccc(F)cc1)c1ccc(F)cc1)C2.Cl (configuration not stated)', 'HEK-293T', 'not fulfilled'),
  ('CCCn1c(=O)c2[nH]c(-c3cnn(Cc4cccc(C(F)(F)F)c4)c3)nc2n(CC)c1=O', 'HEK-293T', 'fulfilled'),
  ('O=C1N/C(=N/c2ccccc2F)S/C1=C\c1ccc(C(=O)O)cc1', 'HEK-293T', 'fulfilled'),
  ('Cl.O=c1c2cccn2c2ccccc2n1CCCN1CCC(c2ccc(Cl)cc2)CC1', 'HEK-293T', 'not fulfilled'),
  ('Cl.Oc1ccc2c3c1O[C@H]1c4[nH]c5c(c4C[C@@]4(O)[C@@H](C2)N(CC2CC2)CC[C@]314)C[C@@]1(O)[C@H]2Cc3ccc(O)c4c3[C@@]1(CCN2CC1CC1)[C@H]5O4', 'HEK-293T', 'fulfilled'),
  ('O=C(Nc1ccc(-c2ccnc(Nc3ccc(N4CCOCC4)cc3)n2)cc1)[C@@H]1CCCN1', 'HEK-293T', 'fulfilled');

###

Entries and their Total Cell Count
tested on: U2OS; experiment: Multiplex assay against U2OS; assay type: toxicity, cell-based; conditions: human, 12 h, 10 µM, compound concentration 10 uM, replicate 1
PARAMETER: Total Cell Count

INSERT INTO results (molecule, recorded_result) VALUES
  ('Cl.O=c1c2cccn2c2ccccc2n1CCCN1CCC(c2ccc(Cl)cc2)CC1', 201),
  ('CCn1cc(-c2ccnc3[nH]c(-c4cccc(CN(C)C)c4)cc23)c(-c2ccc(NC(=O)N(C)C)cc2)n1', 207),
  ('C=C1/C(=C\C=C2/CCC[C@]3(C)[C@@H]([C@H](C)/C=C/[C@H](C)C(C)C)CC[C@@H]23)C[C@@H](O)C[C@@H]1O', 160),
  ('CCCn1c(=O)c2[nH]c(-c3cnn(Cc4cccc(C(F)(F)F)c4)c3)nc2n(CC)c1=O', 118),
  ('COC(=N)c1nc2ccc3ncnc(Nc4ccc(OC)cc4F)c3c2s1', 190),
  ('CN1C2CCC1CC(OC(c1ccc(F)cc1)c1ccc(F)cc1)C2.Cl (configuration not stated)', 151),
  ('NC(=O)c1cccc(-c2cc(Nc3ccc(OC(F)(F)F)cc3)ncn2)c1', 201),
  ('CCOC(=O)c1c(C)[nH]c2ccc3c(c12)CN1CCc2cc(OC)ccc2C1O3 (configuration not stated)', 135),
  ('O=C1N/C(=N/c2ccccc2F)S/C1=C\c1ccc(C(=O)O)cc1', 175),
  ('CN1CCC(=C2c3ccccc3CC(=O)c3sccc32)CC1.O=C(O)/C=C/C(=O)O [KETOTIFEN FUMARATE]', 167),
  ('COc1ccc(-c2ccc3c(N4CCOCC4)nc(N4C[C@@H](C)O[C@@H](C)C4)nc3n2)cc1CO', 221),
  ('CCN1CCN(c2ccc(Nc3cc(N(C)C(=O)Nc4c(Cl)c(OC)cc(OC)c4Cl)ncn3)cc2)CC1', 198),
  ('CCc1cccc(CC)c1NC(=O)c1nn(C)c2c1CCc1cnc(Nc3ccc(C(=O)NC4CCN(C)CC4)cc3OC(F)(F)F)nc1-2', 156),
  ('CCn1c(=O)c(-c2ccc(-c3cncs3)cc2Cl)cc2cnc(Nc3ccc(N4CCN(C)CC4)cc3)nc21', 177),
  ('O=C(Cc1ccc(-c2ccc(OCCN3CCOCC3)cc2)cn1)NCc1ccccc1', 169),
  ('O=C(Nc1ccc(Cl)cc1)Nc1cccc(-c2cccc(N3CCCC3)n2)c1', 109),
  ('CCOc1cc(C(=O)N2CCC(N3CCN(C)CC3)CC2)ccc1Nc1ncc2c(n1)N(C1CCCC1)c1ccccc1C(=O)N2C', 181);
